# measured target: Sut1 (UniProt P53032)
# Sequence: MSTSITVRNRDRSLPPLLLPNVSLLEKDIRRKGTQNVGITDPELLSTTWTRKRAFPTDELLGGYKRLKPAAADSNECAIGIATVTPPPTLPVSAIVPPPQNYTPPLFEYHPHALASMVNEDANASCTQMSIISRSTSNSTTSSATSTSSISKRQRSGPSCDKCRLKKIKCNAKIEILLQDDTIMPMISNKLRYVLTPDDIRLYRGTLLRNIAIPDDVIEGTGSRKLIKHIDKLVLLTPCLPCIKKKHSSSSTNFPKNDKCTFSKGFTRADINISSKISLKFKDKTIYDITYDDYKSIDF
# procedure details: PBM E-score (8-mer binding enrichment) (E-score (-0.5 to 0.5)); higher = stronger / more preferred TF binding
# measurement conditions: protein concentration: 200 nM; construct: GST-full length
Whole data set: some 33,000 sequences, median “E-score (-0.5 to 0.5)” near -0.017, cut for the highest 2% near 0.3. The sample holds the highest values, similar sequences and a random draw of the others, so the mix is not that of the screen.
assay readout: PBM E-score
Lab note: jot down the number only; don't add units.

Record excerpt, results attached:
ACAGGACC ... -0.108
GTAATTAA ... 0.161
TTAATTAA ... 0.0737

Given the sequence ATTAATTC , what is its reported PBM E-score?
0.298

One more sequence: CCGATTGC
0.109

One more sequence: AACAATAT
0.331

One more sequence: ATTACTCG
0.0802
